- system: Adenosine receptor A3 (Homo sapiens)
- assay procedure: Displacement of [125I]AB-MECA from human adenosine A3 receptor expressed in CHO cells; also: test concentration or dose not given here
- Type: cell-based
observable: Activity
Quote the value and follow it with the unit of measurement.

Guide cases for Activity, answers given:
# molecular string, Activity
measured = [
    ("CCNC(=O)[C@H]1O[C@@H](n2cnc3c(NNC(=O)c4ccc(C)s4)ncnc32)[C@H](O)[C@@H]1O", "19%"),
    ("CCNC(=O)[C@H]1O[C@@H](n2cnc3c(NNC(=O)c4sccc4C)nc(Cl)nc32)[C@H](O)[C@@H]1O", "9%"),
    ("CCNC(=O)[C@H]1O[C@@H](n2cnc3c(NNC(=O)c4ccsc4)nc(Cl)nc32)[C@H](O)[C@@H]1O", "18%"),
    ("CCNC(=O)[C@H]1O[C@@H](n2cnc3c(NNC(=O)c4ccc(Cl)cc4)ncnc32)[C@H](O)[C@@H]1O", "20%"),
    ("CCNC(=O)[C@H]1O[C@@H](n2cnc3c(NNC(=O)c4ccccc4)nc(Cl)nc32)[C@H](O)[C@@H]1O", "45%"),
]

Then this compound:
Missing value: Activity, Adenosine receptor A3 (Homo sapiens), entry CCNC(=O)[C@H]1O[C@@H](n2cnc3c(NNC(=O)c4cc(-c5ccccc5)on4)nc(Cl)nc32)[C@H](O)[C@@H]1O . Fill in?
15%
